Catalogue of variants with associated abundance fitness
B1: Formin-binding protein 4, residues 593 to 636; numbered along this chain, Q8N3X1 (parent)
chain: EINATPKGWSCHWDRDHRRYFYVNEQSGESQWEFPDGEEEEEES

- Variants of: B1
- experiment: abundance fitness (aPCA) (normalised: wild type 0, dead -1); higher = more abundant; growth selection in yeast, the domain comes from the species named
- measurement_conditions: Homo sapiens
quantity_measured: abundance fitness

1. W32S | -0.23
2. E33G | -0.168
3. Y20G | -0.605
4. S30M | 0.04
5. E41K | -0.048
6. E42C | -0.023
7. T5L | 0.213
8. N24Q | -0.41
9. E33A | -0.064
10. E25G | -0.316
11. D14P | -1.12
12. P35S | -0.651
13. K7V | -0.065
14. E41R | 0.007
15. E29Q | -0.027
16. V23C | -0.765
17. E33W | -0.429
18. F34L | 0.015
